Values from patent US4604383A

Experiment: Acute toxicity, determination of the lethal dose in the mouse
Conditions: in vivo, po, 500 mg/kg, read-out: Percent toxicity (animals which die in 72 hours)

| Molecule | mortality at 72 h, % |
| --- | --- |
| C[C@@H]1C[C@@H](Cc2cccs2)NC1=O (relative stereo) | 0 |
| C[C@H]1C[C@@H](Cc2cccs2)NC1=O (relative stereo) | 0 |

====

Test: Acute toxicity, determination of the lethal dose in the mouse
Conditions: in vivo, po, 500 mg/kg p.os., read-out: Percent toxicity (animals which die in 72 hours)
Attribute measured: mortality at 72 h (%)

| Compound | Unit text | Observed result |
| --- | --- | --- |
| CCC1(C)CC(Cc2ccc(F)cc2)NC1=O (centres unmarked) [SR 42002] | % | 0 |
| CC1CC(Cc2ccc(F)cc2)NC1=O (centres unmarked) [SR 41882] | % | 0 |
| CC1CC(Cc2cccc(Cl)c2)NC1=O (centres unmarked) [SR 42717] | % | 0 |
| CC1(C)CC(Cc2ccccc2F)NC1=O (centres unmarked) [SR 41680] | % | 0 |
| CC1(C)CC(Cc2ccccc2Cl)NC1=O (centres unmarked) [SR 41880] | % | 0 |
| Cc1ccc(CC2CC(C)(C)C(=O)N2)cc1 (centres unmarked) [SR 42003] | % | 0 |
| COc1ccc(CC2CC(c3ccccc3)C(=O)N2)cc1OC (centres unmarked) [SR 41773] | % | 0 |
| CC1(C)CC(Cc2ccc(Cl)cc2)NC1=O (centres unmarked) [SR 41873] | % | 0 |
| CC1(C)CC(Cc2cccc(C(F)(F)F)c2)NC1=O (centres unmarked) [SR 42725] | % | 0 |
| CC1(C)CC(Cc2ccc(F)cc2)NC1=O (centres unmarked) [SR 41293] | % | 0 |
| CCCCC1([Si](C)(C)C)CC(Cc2ccccc2)NC1=O (centres unmarked) [SR 42133] | % | 0 |
